- System: NRF2 (nuclear factor erythroid 2-related factor 2)
- Test protocol: NRF2 +/-GSH activation assay (DiscoverX PathHunter NRF2 translocation kit, U2OS cells)
- Assay type: cell-based
- Particulars: +GSH; 30 minute compound-GSH pre-incubation; read-out: NRF2 activation +GSH EC50
pEC50: −log10 of the molar value.
Threshold rule: pEC50 greater than or equal to 5 is Condition met; below that, Condition not met.

| Molecule | Cat |
| --- | --- |
| C#CCCCCCCc1noc(CC(=C)C(=O)O)n1 | Condition not met |
| C=C(Cc1nc(C2CCCCCCC2)no1)C(=O)O | Condition not met |
| C=C(Cc1nc(-c2ccc(CCCCC)cc2)no1)C(=O)O | Condition met |
| C=C(Cc1nc(C2CCCCCC2)no1)C(=O)O | Condition not met |
| C=C(Cc1nc(C(F)(F)c2ccc(CCCC)cc2)no1)C(=O)O | Condition met |
| C=C(Cc1nc(Cc2ccc3ccccc3c2)no1)C(=O)O | Condition not met |
| C=C(Cc1nc(C2(c3ccc(C(F)(F)F)cc3)CC2)co1)C(=O)O | Condition not met |
| C=C(Cc1nc(-c2ccc(OCCCC(F)(F)F)cc2)no1)C(=O)O | Condition not met |
| C=C(Cc1noc(C(F)(F)c2ccc(Br)cc2)n1)C(=O)O | Condition not met |
| C=C(Cc1ccc(CCCCCCCC)cn1)C(=O)O | Condition met |
| C=C(Cc1nc(CCc2ccc(CCC)cc2)no1)C(=O)O | Condition not met |
| C/C(=C\c1nc(C2(c3ccc(Br)cc3)CC2)no1)C(=O)O | Condition not met |
| C=C(C(=O)O)C(C)c1nc(C2(c3ccc(C(F)(F)F)cc3)CC2)no1 (stereo not drawn) | Condition not met |
| C=C(Cc1nc(Cc2ccc(C(C)(C)C)cc2)no1)C(=O)O | Condition not met |
| C=C(Cc1nc(CCCCCCC)no1)C(=O)O | Condition not met |
| C=C(Cc1noc(C2(c3ccc(Br)cc3)CC2)n1)C(=O)O | Condition not met |
| C=C(Cc1nc(C2(c3cccc(Cl)c3)CC2)no1)C(=O)O | Condition not met |
| C=C(Cc1nc(C2(c3ccc(S(F)(F)(F)(F)F)cc3)CC2)no1)C(=O)O | Condition not met |
| C=C(Cc1nnc(CCCCCCCC)o1)C(=O)O | Condition not met |
| C=C(Cc1nc(Cc2ccc(Cl)cc2)no1)C(=O)O | Condition not met |
| C=C(Cc1nc(C2(c3ccc(OC)cc3)CC2)no1)C(=O)O | Condition not met |
| C=C(Cc1nc(CCCCCCC(F)(F)CF)no1)C(=O)O | Condition not met |
| C=C(Cc1nc(Cc2cc(Cl)cc(Cl)c2)no1)C(=O)O | Condition not met |
| C=C(Cc1nc(CCc2ccc(Cl)cc2)no1)C(=O)O | Condition not met |
| CCCCOc1ccc(-c2noc(/C=C(\C)C(=O)O)n2)cc1 | Condition not met |
| C=C(Cc1ncn(CCCCCCCC)n1)C(=O)O | Condition not met |
| C=C(Cc1nc(C2(c3ccc([S+]([O-])C(F)(F)F)cc3)CC2)no1)C(=O)O (stereo not drawn) | Condition not met |
| C=C(Cc1noc(CCCCCCCC)n1)C(=O)O | Condition met |
| C=C(Cc1nc(C2(c3ccc(OC(F)(F)F)cc3)CC2)no1)C(=O)O | Condition not met |
| C=C(Cc1noc(C(F)(F)CCCCCCC)n1)C(=O)O | Condition met |
| C=C(Cc1nc(C(C)(C)CCCCCC)no1)C(=O)O | Condition not met |
| C=C(Cc1nc(CCCCCCCC(F)F)no1)C(=O)O | Condition not met |
| C=C(Cc1nc(-c2ccc(C3(CCC)CC3)cc2)no1)C(=O)O | Condition not met |
